# System: IgG production
# procedure_summary: IgG production in B cell differentiation assay (ELISA)
# Type: cell-based
# assay_conditions: Homo sapiens, Normal (n = 3)
measure_name: IC50 (nM)
Give the quantity in nM, number only.

Entry Cc1nc2cccc(N)c2c(=O)n1C1CCC(=O)NC1=O (stereo not shown) — recorded IC50 = 61
